- system: Tyrosine-protein kinase JAK1 (Homo sapiens)
- Sequence (P23458 whole entry): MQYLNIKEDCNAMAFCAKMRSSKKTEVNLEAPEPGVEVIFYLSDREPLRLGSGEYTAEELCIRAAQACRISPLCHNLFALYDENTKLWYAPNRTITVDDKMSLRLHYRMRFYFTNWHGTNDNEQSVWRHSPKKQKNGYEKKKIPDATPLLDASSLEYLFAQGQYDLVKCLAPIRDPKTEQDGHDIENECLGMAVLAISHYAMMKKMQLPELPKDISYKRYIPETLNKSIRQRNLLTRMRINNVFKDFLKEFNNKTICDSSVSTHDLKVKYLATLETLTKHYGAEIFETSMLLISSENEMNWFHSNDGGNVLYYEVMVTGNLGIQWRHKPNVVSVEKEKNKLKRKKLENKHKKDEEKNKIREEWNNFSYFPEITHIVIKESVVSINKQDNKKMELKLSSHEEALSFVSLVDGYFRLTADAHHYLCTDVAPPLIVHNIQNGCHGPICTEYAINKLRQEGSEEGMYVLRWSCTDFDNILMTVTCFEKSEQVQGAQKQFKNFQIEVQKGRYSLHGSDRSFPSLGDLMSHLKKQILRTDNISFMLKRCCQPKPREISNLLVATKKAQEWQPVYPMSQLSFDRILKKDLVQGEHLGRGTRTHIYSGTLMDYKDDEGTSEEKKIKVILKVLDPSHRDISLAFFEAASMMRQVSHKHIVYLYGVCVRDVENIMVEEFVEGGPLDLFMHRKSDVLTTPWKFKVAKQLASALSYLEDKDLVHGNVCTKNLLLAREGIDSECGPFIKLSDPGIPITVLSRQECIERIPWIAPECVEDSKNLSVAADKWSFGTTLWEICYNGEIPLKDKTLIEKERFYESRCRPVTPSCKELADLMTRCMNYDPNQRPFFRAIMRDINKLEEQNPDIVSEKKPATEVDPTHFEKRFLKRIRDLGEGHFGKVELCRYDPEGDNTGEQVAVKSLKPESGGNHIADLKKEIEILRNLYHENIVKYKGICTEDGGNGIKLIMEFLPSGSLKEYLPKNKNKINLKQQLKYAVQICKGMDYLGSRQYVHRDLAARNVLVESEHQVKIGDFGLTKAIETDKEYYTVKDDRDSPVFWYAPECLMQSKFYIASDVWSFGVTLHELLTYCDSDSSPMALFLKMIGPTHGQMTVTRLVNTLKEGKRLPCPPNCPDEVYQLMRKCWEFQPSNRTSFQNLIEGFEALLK
- protocol.summary: Inhibition of JAK1 (unknown origin) after 1 hr by FRET-based Z'-Lyte assay
measurement.type: IC50 (µM)

Clc1cccc(-n2cnnn2)c1-c1nc(-c2ccc3[nH]ncc3c2)cs1; 21.6

[a] Nc1n[nH]c2ccc(C(=O)Nc3ccccc3)cc12
[b] Nc1n[nH]c2ccc(NC(=O)c3ccccc3-n3cnnn3)cc12
Hi there! Just curious which has the higher IC50 between a and b . To answer, give the label that identifies your chosen option.
b
(b: 33.9 µM, a: 10.8 µM)

----------
- system: UniProt O60674
- protocol.summary: Inhibition of JAK2 (unknown origin) after 1 hr FRET-based Z'-Lyte assay
measurement.type: IC50 (nM)

[A] O=C(Nc1ccc2[nH]ncc2c1)c1ccccc1Cl
[B] Nc1n[nH]c2ccc(C(=O)Nc3ccccc3Cl)cc12
Field: lower IC50 | Options: A / B To answer, give the label that identifies your chosen option.
B

[A] Nc1n[nH]c2ccc(C(=O)Nc3ccccc3)cc12
[B] Nc1n[nH]c2ccc(NC(=O)c3cccc(Cl)c3)cc12
Hi there! Just curious which has the higher IC50 between A and B . To answer, give the label that identifies your chosen option.
A

----------
- system: Tyrosine-protein kinase JAK2 (Homo sapiens)
- Sequence (O60674 whole entry): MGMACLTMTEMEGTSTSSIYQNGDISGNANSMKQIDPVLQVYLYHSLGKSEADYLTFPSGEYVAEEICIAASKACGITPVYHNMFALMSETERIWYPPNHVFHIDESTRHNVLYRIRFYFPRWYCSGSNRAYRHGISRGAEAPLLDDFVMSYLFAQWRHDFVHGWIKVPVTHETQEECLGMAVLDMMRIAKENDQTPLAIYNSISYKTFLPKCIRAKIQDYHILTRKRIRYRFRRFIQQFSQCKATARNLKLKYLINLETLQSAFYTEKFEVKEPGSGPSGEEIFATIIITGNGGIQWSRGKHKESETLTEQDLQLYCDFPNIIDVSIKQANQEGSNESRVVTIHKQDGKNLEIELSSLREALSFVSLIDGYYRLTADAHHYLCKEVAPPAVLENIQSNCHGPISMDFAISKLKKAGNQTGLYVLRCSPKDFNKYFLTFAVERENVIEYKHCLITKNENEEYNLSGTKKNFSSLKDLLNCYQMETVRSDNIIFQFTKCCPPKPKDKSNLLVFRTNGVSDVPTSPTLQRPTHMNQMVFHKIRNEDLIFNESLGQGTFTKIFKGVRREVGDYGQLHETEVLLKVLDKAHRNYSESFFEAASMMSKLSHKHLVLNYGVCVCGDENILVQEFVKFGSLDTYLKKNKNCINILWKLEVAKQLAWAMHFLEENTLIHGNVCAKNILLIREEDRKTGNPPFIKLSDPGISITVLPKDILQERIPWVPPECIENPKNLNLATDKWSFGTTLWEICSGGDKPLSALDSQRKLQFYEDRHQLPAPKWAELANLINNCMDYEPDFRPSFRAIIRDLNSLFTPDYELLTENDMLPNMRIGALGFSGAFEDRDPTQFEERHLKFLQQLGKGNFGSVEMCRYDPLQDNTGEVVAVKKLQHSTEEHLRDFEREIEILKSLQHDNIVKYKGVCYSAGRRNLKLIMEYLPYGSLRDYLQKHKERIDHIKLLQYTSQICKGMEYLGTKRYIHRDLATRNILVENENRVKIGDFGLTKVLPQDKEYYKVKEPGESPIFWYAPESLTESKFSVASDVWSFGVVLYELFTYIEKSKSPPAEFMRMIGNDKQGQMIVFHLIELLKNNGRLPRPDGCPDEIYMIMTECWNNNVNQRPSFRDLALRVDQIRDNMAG
- protocol.summary: Inhibition of JAK2 (unknown origin) after 1 hr FRET-based Z'-Lyte assay
measurement.type: IC50 (µM)

c1ccc(-n2cnnn2)c(-c2cn(-c3ccc4[nH]ncc4c3)nn2)c1; 9.53
Nc1n[nH]c2ccc(NC(=O)c3ccccc3Cl)cc12; 0.101
O=C(Nc1ccc2[nH]ncc2c1)c1c(Cl)cccc1-n1cnnn1; 0.82
CCNc1ccccc1C(=O)Nc1ccc2[nH]nc(N)c2c1; 1.97
O=C(Nc1ccc2[nH]ncc2c1)c1cccc(-n2cnnn2)c1; 0.718
Nc1n[nH]c2ccc(-c3cnc(-c4ccccc4-n4cnnn4)s3)cc12; 3.25
Nc1n[nH]c2ccc(NC(=O)c3ccccc3)cc12; 2.78

[A] Nc1n[nH]c2ccc(NC(=O)c3c(Cl)cccc3-n3cnnn3)cc12
[B] O=C(Nc1ccc2[nH]ncc2c1)c1ccccc1-n1cnnn1
Field: lower IC50 | Options: A / B To answer, give the label that identifies your chosen option.
B
